The measurements presented in this section are drawn from patent US6794396B2.

study_target: CETP (Homo sapiens)
Construct: made in house; host or cells: CHO cells (serum-free conditioned medium)
Sequence (P11597 18-493): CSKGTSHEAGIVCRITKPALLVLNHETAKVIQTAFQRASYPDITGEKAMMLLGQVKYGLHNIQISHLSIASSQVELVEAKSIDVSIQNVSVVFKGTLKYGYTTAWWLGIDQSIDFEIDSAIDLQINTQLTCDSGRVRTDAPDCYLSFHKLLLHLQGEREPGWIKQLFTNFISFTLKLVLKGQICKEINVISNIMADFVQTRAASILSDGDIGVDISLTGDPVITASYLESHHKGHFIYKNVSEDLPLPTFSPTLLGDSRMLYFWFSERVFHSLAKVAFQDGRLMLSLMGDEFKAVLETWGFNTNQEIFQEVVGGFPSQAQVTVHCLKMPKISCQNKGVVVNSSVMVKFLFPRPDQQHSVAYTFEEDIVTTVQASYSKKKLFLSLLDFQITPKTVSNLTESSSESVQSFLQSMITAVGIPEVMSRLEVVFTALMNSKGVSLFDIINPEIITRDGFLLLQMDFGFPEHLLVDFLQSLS
assay_details: CETP activity in vitro: transfer of [3H]CE from HDL donor to LDL acceptor particles
Type: biochemical
measurement_context: 10 μm
endpoint_name: % transfer at 10 μm

- COC(=O)c1c(C(F)F)nc(C(F)(F)F)c(SC2CCCO2)c1CC(C)C (centres unmarked) [Compound 150]: 95^D %
- CCOC(C)Sc1c(C(F)(F)F)nc(C(F)F)c(C(=O)OC)c1CC(C)C (centres unmarked) [Compound 146]: 67^D %
- COC(=O)c1c(C(F)F)nc(C(F)(F)F)c(SC(C)OC)c1CC(C)C (centres unmarked) [Compound 147]: 15^D %
- COC(=O)c1c(C(F)F)nc(C(F)(F)F)c(SCCF)c1CC(C)C [Compound 148]: 32^D %
- COC(=O)c1c(C(F)F)nc(C(F)(F)F)c(SC(C)=O)c1CC(C)C [Compound 149]: 31^D %
